Reference source: BigSolDB 2.1

protocol-conditions: in 2-methoxyethanol, 288.15 K
measured-attribute: solubility (mole fraction)

| smiles-data | observed-result |
| --- | --- |
| CN(C)NC(=O)CCC(=O)O | 0.00519 |

---

protocol-conditions: in DMF, 323.15 K

| smiles-data | solubility (mole fraction) |
| --- | --- |
| CN(C)NC(=O)CCC(=O)O | 0.0645 |

---

protocol-conditions: in n-pentanol, 323.15 K
measured-attribute: solubility (mole fraction)

| smiles-data | observed-result |
| --- | --- |
| CN(C)NC(=O)CCC(=O)O | 0.00145 |

---

protocol-conditions: in isopropanol, 298.15 K

| smiles-data | solubility (mole fraction) |
| --- | --- |
| CN(C)NC(=O)CCC(=O)O | 0.0011 |

---

protocol-conditions: in methanol, 298.15 K

| smiles-data | solubility (mole fraction) |
| --- | --- |
| CN(C)NC(=O)CCC(=O)O | 0.014 |

---

protocol-conditions: in 2-butoxyethanol, 308.15 K
measured-attribute: solubility (mole fraction)

| smiles-data | observed-result |
| --- | --- |
| CN(C)NC(=O)CCC(=O)O | 0.00126 |

---

protocol-conditions: in 2-butoxyethanol, 313.15 K
measured-attribute: solubility (mole fraction)

| smiles-data | observed-result |
| --- | --- |
| CN(C)NC(=O)CCC(=O)O | 0.00162 |

---

protocol-conditions: in ethanol, 293.15 K
measured-attribute: solubility (mole fraction)

| smiles-data | observed-result |
| --- | --- |
| CN(C)NC(=O)CCC(=O)O | 0.00437 |

---

protocol-conditions: in n-propanol, 293.15 K

| smiles-data | solubility (mole fraction) |
| --- | --- |
| CN(C)NC(=O)CCC(=O)O | 0.00161 |

---

protocol-conditions: in 2-ethoxyethanol, 298.15 K

| smiles-data | solubility (mole fraction) |
| --- | --- |
| CN(C)NC(=O)CCC(=O)O | 0.00382 |

---

protocol-conditions: in ethanol, 298.15 K

| smiles-data | solubility (mole fraction) |
| --- | --- |
| CN(C)NC(=O)CCC(=O)O | 0.00551 |

---

protocol-conditions: in n-propanol, 313.15 K

| smiles-data | solubility (mole fraction) |
| --- | --- |
| CN(C)NC(=O)CCC(=O)O | 0.00471 |

---

protocol-conditions: in 2-ethoxyethanol, 283.15 K
measured-attribute: solubility (mole fraction)

| smiles-data | measured-attribute | observed-result |
| --- | --- | --- |
| CN(C)NC(=O)CCC(=O)O | solubility (mole fraction) | 0.00176 |

---

protocol-conditions: in n-propanol, 298.15 K

| smiles-data | solubility (mole fraction) |
| --- | --- |
| CN(C)NC(=O)CCC(=O)O | 0.00217 |

---

protocol-conditions: in isopropanol, 293.15 K

| smiles-data | solubility (mole fraction) |
| --- | --- |
| CN(C)NC(=O)CCC(=O)O | 0.000752 |

---

protocol-conditions: in 2-propoxyethanol, 288.15 K

| smiles-data | solubility (mole fraction) |
| --- | --- |
| CN(C)NC(=O)CCC(=O)O | 0.000617 |

---

protocol-conditions: in ethanol, 303.15 K

| smiles-data | solubility (mole fraction) |
| --- | --- |
| CN(C)NC(=O)CCC(=O)O | 0.0069 |
